Tested on: KB/VJ300
Assay: Antiproliferative activity against human KB/VJ300 cells assessed as reduction in cell growth after 72 hrs by MTT assay
Type: functional, cell-based
Details: KB/VJ300, 72 h
Catalogue of molecules with associated IC50
QUANTITY MEASURED: IC50 (µM)

MOLECULE: C/C=C1/CN2[C@H]3C[C@@H]1[C@@H](CO)[C@@H]2Cc1c3n(C)c2cc(C[C@H]3[C@@H]4C[C@H]5c6c(c7ccccc7n6C)C[C@@H]([C@@H]4CO[C@]3(C)OC)N5C)c(OC)cc12
VAL: 2.9
//
MOLECULE: C/C=C1/CN2[C@H]3C[C@@H]1[C@@H](CO)[C@@H]2Cc1c3n(C)c2cc(C(C)C3=COC[C@@H]4[C@H]3C[C@H]3c5c(c6ccccc6n5C)C[C@@H]4N3C)c(OC)cc12 (some centres undefined)
VAL: 6.7
//
MOLECULE: C/C=C1/CN2[C@H]3C[C@@H]1[C@@H](CO)[C@@H]2Cc1c3n(C)c2cc(C[C@@H](C(C)=O)[C@@H]3C[C@H]4c5c(c6ccccc6n5C)C[C@@H]([C@@H]3CO)N4C)c(OC)cc12
VAL: 3.6
//
MOLECULE: C/C=C1/CN2[C@H]3C[C@@H]1[C@@H](CO)[C@@H]2Cc1c3n(C)c2ccc(OC)c(C[C@@H](C(C)=O)[C@@H]3C[C@H]4c5c(c6ccccc6n5C)C[C@@H]([C@@H]3CO)N4C)c12
VAL: 5.5

----------
Reported IC50 values follow for various compounds
Test system: HCT-116
Experiment: Antiproliferative activity against human HCT116 cells assessed as reduction in cell growth after 72 hrs by MTT assay
Assay type: functional, cell-based
Settings: HCT-116, 72 h
QUANTITY MEASURED: IC50 (nM)

COMPOUND: C/C=C1/CN2[C@H]3C[C@@H]1[C@@H](CO)[C@@H]2Cc1c3n(C)c2cc(C(C)C3=COC[C@@H]4[C@H]3C[C@H]3c5c(c6ccccc6n5C)C[C@@H]4N3C)c(OC)cc12 (stereo partly specified)
QUALIFIER SYMBOL: >
VAL: 10000

COMPOUND: C/C=C1/CN2[C@H]3C[C@@H]1[C@@H](CO)[C@@H]2Cc1c3n(C)c2ccc(OC)c(C[C@@H](C(C)=O)[C@@H]3C[C@H]4c5c(c6ccccc6n5C)C[C@@H]([C@@H]3CO)N4C)c12
QUALIFIER SYMBOL: =
VAL: 1500

COMPOUND: C/C=C1/CN2[C@H]3C[C@@H]1[C@@H](CO)[C@@H]2Cc1c3n(C)c2cc(C[C@H]3[C@@H]4C[C@H]5c6c(c7ccccc7n6C)C[C@@H]([C@@H]4CO[C@]3(C)OC)N5C)c(OC)cc12
QUALIFIER SYMBOL: =
VAL: 2900

COMPOUND: C/C=C1/CN2[C@H]3C[C@@H]1[C@@H](CO)[C@@H]2Cc1c3n(C)c2ccc(OC)c(CC3=C(C)OC[C@@H]4[C@H]3C[C@H]3c5c(c6ccccc6n5C)C[C@@H]4N3C)c12
QUALIFIER SYMBOL: =
VAL: 4200

COMPOUND: C/C=C1/CN2[C@H]3C[C@@H]1[C@@H](CO)[C@@H]2Cc1c3n(C)c2cc(C[C@@H](C(C)=O)[C@@H]3C[C@H]4c5c(c6ccccc6n5C)C[C@@H]([C@@H]3CO)N4C)c(OC)cc12
QUALIFIER SYMBOL: =
VAL: 2100

COMPOUND: C/C=C1/CN2[C@H]3C[C@@H]1[C@@H](CO)[C@@H]2Cc1c3n(C)c2cc(C[C@@H]3[C@@H]4C[C@H]5c6c(c7ccccc7n6C)C[C@@H]([C@@H]4CO[C@]3(C)OC)N5C)c(OC)cc12
QUALIFIER SYMBOL: >
VAL: 10000
